Sourced from the supplement of paper PMC7411054

Some compounds, each annotated with its measured lowest phenotypically active concentration.
system: WPMY1-TP53BP1-CLTA; assay: lowest phenotypically active concentration; higher = less potent; settings: treatment time: 24 h
Where a name gives a salt, the structure may show the parent alone.

Recorded lowest phenotypically active concentration, per entry:
CCC(C)(C)C(=O)O[C@H]1C[C@@H](C)C=C2C=C[C@H](C)[C@H](CC[C@@H]3C[C@@H](O)CC(=O)O3)[C@H]21: 3 µM
O=C(OC12CC3CC(CC(C3)C1)C2)c1ccc(NCc2cc(O)ccc2O)cc1: 3 µM
CC(=C/[C@@H](C)C(=O)c1ccc(N(C)C)cc1)/C=C/C(=O)NO: ≤ 0.3 µM
CCC1(O)CC2CN(CCc3c([nH]c4ccccc34)C(C(=O)OC)(c3cc4c(cc3OC)N(C)C3C(O)(C(=O)OC)C(OC(C)=O)C5(CC)C=CCN6CCC43C65)C2)C1 (stereo not drawn) [Vinblastine sulfate]: ≤ 0.3 µM
CO[C@H]1C=CC=C(C)C(=O)NC2=CC(=O)C(NCCN(C)C)=C(C[C@@H](C)C[C@H](OC)[C@H](O)[C@@H](C)C=C(C)[C@@H]1OC(N)=O)C2=O [17-DMAG hydrochloride]: ≤ 0.3 µM
O=c1[nH]cc(F)c(=O)[nH]1: 9 µM
COc1cc(N2CCOCC2)ccc1Nc1ncc(Cl)c(Nc2ccccc2NS(C)(=O)=O)n1: 9 µM
CNC(=O)Nc1ccc(-c2nc(N3CC4CCC(C3)O4)c3cnn(C4CCC5(CC4)OCCO5)c3n2)cc1: ≤ 0.3 µM
Cc1c[nH]c2nccc(Oc3c(F)cc(Nc4cc(Cl)nc(N)n4)cc3F)c12: 1 µM
CN(C)CC(O)Cn1c2ccc(Br)cc2c2cc(Br)ccc21 (stereo not drawn): 9 µM

For reference, reported lowest phenotypically active concentration for `CC(C)CNc1nc(-c2cccc3ncccc23)cn2c(-c3ccc(C(=O)NC4CC4)cc3)cnc12` stands at 1 µM

The compound identified as `CCCCNNC(=O)c1ccc(Br)cc1` registered its lowest phenotypically active concentration at 9 µM

Quick note, lowest phenotypically active concentration for `Cc1cc(/N=N/c2ccc(S(=O)(=O)Nc3ccccn3)cc2)c(N)cc1O` landed at 9 µM

According to the records, this compound `O=C(O/N=C1\c2ccccc2-c2nc3ccccc3nc21)c1ccco1` displays lowest phenotypically active concentration of 9 µM

According to the records, this compound `COc1cc(N2CCN(C)CC2)ccc1Nc1nccc(-c2cn(C)c3cnccc23)n1` displays lowest phenotypically active concentration of 1 µM

compound `COc1ccc2c(NC(=O)Nc3cccc(C(F)(F)F)n3)ccnc2c1` , lowest phenotypically active concentration observed: 1 µM

Noted for `CCCCc1oc2ccc(NS(C)(=O)=O)cc2c1C(=O)c1ccc(OCCCN(CCCC)CCCC)cc1` : its lowest phenotypically active concentration reads 9 µM

lowest phenotypically active concentration reading for CC(C)(N)c1cc(C(=O)N[C@@H]2CCc3ccc(OC4=C5CCC(=O)N=C5NC=C4)cc3C2)cc(C(F)(F)F)c1 [ML 786 dihydrochloride] : 1 µM

---

system: HepG2-TUBA1B-RELA; test: lowest phenotypically active concentration; higher = less potent; settings: treatment time: 24 h
Structures can show the parent of a compound that is named as a salt.
measureName: lowest phenotypically active concentration (µM)
Provide the reading as a plain figure in µM.

CNC(=O)c1cc(Oc2ccc(NC(=O)Nc3ccc(Cl)c(C(F)(F)F)c3)cc2)ccn1 [sorafenib]: 3

# lowest phenotypically active concentration measured on HepG2-TUBA1B-RELA for item CN1CCC(=C2c3ccccc3CC(=O)c3sccc32)CC1 [ketotifen] = 3

Record for CN(C)CC(=O)Nc1ccc2[nH]c(=O)c3ccccc3c2c1 [PJ 34 hydrochloride] under target or system HepG2-TUBA1B-RELA: lowest phenotypically active concentration reported as 9

Value sought: lowest phenotypically active concentration, system HepG2-TUBA1B-RELA, item COCCCC/C(=N/OCCN)c1ccc(C(F)(F)F)cc1 [fluvoxamine] . Result: 9

Reading of lowest phenotypically active concentration for `Cc1cccc(-c2nn(C(=S)Nc3ccccc3)cc2-c2ccnc3ccccc23)n1` with HepG2-TUBA1B-RELA: 9

Entry `CCc1nc(-c2cccc(C)c2)c(-c2ccnc(NC(=O)c3ccccc3)c2)s1` ; assay system HepG2-TUBA1B-RELA; lowest phenotypically active concentration recorded at 1

Log: HepG2-TUBA1B-RELA, molecule `O=c1cc(N2CCOCC2)oc2c(-c3cccc4c3sc3ccccc34)cccc12` , lowest phenotypically active concentration = 1

Lab note: molecule `Cc1noc(C)c1Cn1cc(C#N)c2cc(Oc3ccc(NC(=O)[C@@H]4CCCN4)cc3)ccc21` tested on HepG2-TUBA1B-RELA; recorded lowest phenotypically active concentration was 9
